Biological target: UniProt P40261
Sequence (P40261 whole entry): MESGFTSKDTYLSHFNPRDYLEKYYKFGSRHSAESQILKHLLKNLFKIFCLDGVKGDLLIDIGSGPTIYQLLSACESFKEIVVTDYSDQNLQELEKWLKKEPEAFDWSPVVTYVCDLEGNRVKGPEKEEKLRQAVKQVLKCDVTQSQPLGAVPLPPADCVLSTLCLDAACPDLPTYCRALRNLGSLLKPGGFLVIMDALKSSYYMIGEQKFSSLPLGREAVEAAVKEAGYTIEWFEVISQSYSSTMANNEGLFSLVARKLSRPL
Quantity Measured: Kd (µM)
Numbers only, in µM.

q: Report measured Kd; entry is C[S+](CC[C@H](N)C(=O)O)C[C@H]1O[C@@H](n2cnc3c(N)ncnc32)[C@H](O)[C@@H]1O (stereo partly drawn) [SAM, S-5′-adenosyl-L-methionine, reference compound]
a: 56.4
